FYI, the data here is from patent US20240239766A1.

- Assayed system: hNav1.7 (Homo sapiens (Human))
- Protocol notes: Patch voltage clamp electrophysiology assay (EP), Syncropatch 384PE, CHO cells expressing Nav1.7
- Recorded conditions: holding potential −50 mV; 7.5 min compound incubation; read-out: EP SP hNav1.7 EVO (IC50)
- Excerpt: Example 101c: Electrophysiological Assay (EP) (In Vitro Assay) Patch voltage clamp electrophysiology allows for the direct measurement and quantification of block of voltage-gated sodium channels (NaV's), and allows the determination of the time- and voltage-dependence of block which has been interpreted as differential binding to the resting, open, and inactivated states of the sodium channel (Hille, B., Journal of General Physiology (1977), 69: 497-515). […]
Structures can show the parent of a compound that is named as a salt.
Assay endpoint: pIC50
When answering, recall that pIC50 equals minus log10 of the concentration in mol/L, and write that number alone.

See these solved cases before continuing.
CN(C)[C@@]1(CCc2cccc(C(F)(F)F)c2)CCCN(c2cc(F)c(S(=O)(=O)Nc3ncccn3)c(F)c2)C1 (single isomer, unassigned) [Example 52] ... 6.24
CN(C)[C@]1(CCc2cccc(Cl)c2)CCCN(c2cc(F)c(S(=O)(=O)Nc3ccncn3)c(F)c2)C1 (single isomer, unassigned) [Example 91, formate] ... 7.94
CN(C)[C@@]1(CCc2cc(Cl)cc(C(F)(F)F)c2)CCCN(c2cc(F)c(S(=O)(=O)Nc3ccncn3)c(F)c2)C1 (single isomer, unassigned) [Example 42] ... 7.28
CN(C)[C@]1(CCc2ccc(C(F)(F)F)cc2Cl)CCCN(c2cc(F)c(S(=O)(=O)Nc3ccncn3)c(F)c2)C1 (single isomer, unassigned) [Example 57] ... 8.30

Kindly review the next compound as well.
Record CN(C)[C@@]1(CCc2cccc(C(F)(F)F)c2)CCCN(c2cc(Cl)c(S(=O)(=O)Nc3ccncn3)c(Cl)c2)C1 (single isomer, unassigned) [Example 64] , field pIC50: 8.81

====

IC50 reference
- Assayed system: hNav1.7 (Homo sapiens (Human), UniProt Q15858)
- Sequence (Q15858 other isoform, or with tags, fused parts or gaps): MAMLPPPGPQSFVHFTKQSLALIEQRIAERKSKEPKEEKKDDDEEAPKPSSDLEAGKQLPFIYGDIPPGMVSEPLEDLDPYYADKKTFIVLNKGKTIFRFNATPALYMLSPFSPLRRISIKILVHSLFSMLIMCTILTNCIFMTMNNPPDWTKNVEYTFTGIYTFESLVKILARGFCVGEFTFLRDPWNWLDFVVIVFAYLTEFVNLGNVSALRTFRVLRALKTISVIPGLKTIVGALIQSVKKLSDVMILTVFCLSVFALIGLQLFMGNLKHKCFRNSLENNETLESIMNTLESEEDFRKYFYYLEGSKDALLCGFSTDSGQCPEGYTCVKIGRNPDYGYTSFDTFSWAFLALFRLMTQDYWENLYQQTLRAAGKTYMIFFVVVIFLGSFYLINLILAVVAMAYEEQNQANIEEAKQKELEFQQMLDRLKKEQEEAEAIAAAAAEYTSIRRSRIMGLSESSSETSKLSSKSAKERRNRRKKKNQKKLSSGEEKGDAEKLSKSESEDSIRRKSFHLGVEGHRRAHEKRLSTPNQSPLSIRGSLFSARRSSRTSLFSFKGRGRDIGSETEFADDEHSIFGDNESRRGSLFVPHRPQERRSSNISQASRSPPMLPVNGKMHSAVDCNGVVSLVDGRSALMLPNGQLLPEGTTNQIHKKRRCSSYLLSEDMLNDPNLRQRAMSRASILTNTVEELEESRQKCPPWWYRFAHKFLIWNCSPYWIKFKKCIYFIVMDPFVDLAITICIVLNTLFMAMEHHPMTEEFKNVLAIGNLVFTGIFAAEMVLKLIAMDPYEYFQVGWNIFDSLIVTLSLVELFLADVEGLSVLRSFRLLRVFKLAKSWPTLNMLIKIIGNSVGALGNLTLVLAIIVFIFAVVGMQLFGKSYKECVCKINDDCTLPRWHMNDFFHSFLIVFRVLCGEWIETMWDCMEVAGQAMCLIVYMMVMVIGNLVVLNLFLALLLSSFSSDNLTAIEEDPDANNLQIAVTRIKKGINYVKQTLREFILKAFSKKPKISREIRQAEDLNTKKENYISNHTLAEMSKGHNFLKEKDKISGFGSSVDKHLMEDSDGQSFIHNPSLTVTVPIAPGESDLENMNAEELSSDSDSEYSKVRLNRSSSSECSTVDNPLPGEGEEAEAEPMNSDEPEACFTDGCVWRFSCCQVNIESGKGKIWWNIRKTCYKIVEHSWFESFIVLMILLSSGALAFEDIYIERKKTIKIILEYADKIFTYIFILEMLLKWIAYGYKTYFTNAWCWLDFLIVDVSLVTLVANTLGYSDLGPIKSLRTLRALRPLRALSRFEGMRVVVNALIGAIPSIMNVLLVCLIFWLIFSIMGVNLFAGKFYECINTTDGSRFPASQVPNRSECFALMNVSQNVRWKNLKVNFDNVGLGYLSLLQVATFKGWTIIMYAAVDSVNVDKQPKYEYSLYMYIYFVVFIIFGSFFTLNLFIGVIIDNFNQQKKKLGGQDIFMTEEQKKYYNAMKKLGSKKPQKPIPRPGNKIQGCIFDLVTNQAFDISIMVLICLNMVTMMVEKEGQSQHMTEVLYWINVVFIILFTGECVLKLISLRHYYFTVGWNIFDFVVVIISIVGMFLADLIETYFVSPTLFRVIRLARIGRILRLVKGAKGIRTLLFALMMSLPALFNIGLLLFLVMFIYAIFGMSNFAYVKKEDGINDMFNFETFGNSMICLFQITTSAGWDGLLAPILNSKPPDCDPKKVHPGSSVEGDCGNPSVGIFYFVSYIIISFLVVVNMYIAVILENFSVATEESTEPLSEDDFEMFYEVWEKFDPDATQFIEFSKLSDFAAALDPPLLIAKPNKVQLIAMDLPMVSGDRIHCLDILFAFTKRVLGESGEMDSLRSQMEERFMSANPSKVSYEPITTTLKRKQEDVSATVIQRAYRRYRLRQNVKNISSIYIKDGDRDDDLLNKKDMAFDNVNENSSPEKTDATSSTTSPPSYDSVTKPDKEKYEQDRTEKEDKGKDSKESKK
- Protocol notes: Patch voltage clamp electrophysiology assay (EP), Syncropatch 384PE, CHO cells expressing Nav1.7
- Format: cell-based
- Recorded conditions: holding potential −50 mV; 7.5 min compound incubation; read-out: EP SP hNav1.7 EVO (IC50)
Kindly answer with a numeric value in nM, unit omitted.

CN(C)[C@]1(CCc2cccc(C(F)(F)F)c2)CCCN(c2cc(F)c(S(=O)(=O)Nc3ccon3)c(F)c2)C1 (single isomer, unassigned) ... 16
CN(C)[C@]1(CCc2cccc(C(F)(F)F)c2)CCCN(c2cc(F)c(S(=O)(=O)Nc3ncccn3)c(F)c2)C1 (single isomer, unassigned) ... 9.23

Attention now shifts to the item below.
Per the records, this compound ( CN(C)[C@]1(CCc2cccc(C(F)(F)F)c2)CCCN(c2ccc(S(=O)(=O)Nc3ccncn3)c(F)c2)C1 (single isomer, unassigned) ) has IC50 equal to 6.88

====

- Assayed system: hNav1.7 (Homo sapiens (Human))
- Protocol notes: Patch voltage clamp electrophysiology assay (EP), Syncropatch 384PE, CHO cells expressing Nav1.7
- Recorded conditions: holding potential −50 mV; 7.5 min compound incubation; read-out: EP SP hNav1.7 EVO (IC50)
Assay endpoint: IC50 (µM)
State just the number; it will be interpreted in µM.

Solved entries:
CN([C@@H]1CCOC1)[C@]1(CCc2cccc(C(F)(F)F)c2)CCCN(c2cc(F)c(S(=O)(=O)Nc3ccncn3)c(F)c2)C1 (single isomer, unassigned) ... 0.000681
CN(C)[C@]1(CCc2cccc(C(F)(F)F)c2)CCCN(c2ccc(S(=O)(=O)Nc3nccs3)c(F)c2)C1 (single isomer, unassigned) ... 0.0587

Form: molecule = CN(C)[C@]1(CCc2ccccc2)CCCN(c2ccc(S(=O)(=O)Nc3ccncn3)c(F)c2)C1 (single isomer, unassigned) ; IC50 = 0.0489

Form field IC50, entry CN(C)[C@@]1(CCc2cccc(C(F)(F)F)c2)CCCN(c2cc(F)c(S(=O)(=O)Nc3ccncn3)c(F)c2)C1 (single isomer, unassigned) : 0.288

Reported IC50 of CN(C)[C@]1(C2CC(c3cccc(C(F)(F)F)c3)C2)CCCN(c2cc(F)c(S(=O)(=O)Nc3ccncn3)c(F)c2)C1 (stereo partly drawn) : 0.00181

====

- Assayed system: UniProt Q15858
- Protocol notes: Patch voltage clamp electrophysiology assay (EP), Syncropatch 384PE, CHO cells expressing Nav1.7
- Recorded conditions: holding potential −50 mV; 7.5 min compound incubation; read-out: EP SP hNav1.7 EVO (IC50)
- Excerpt: Example 101c: Electrophysiological Assay (EP) (In Vitro Assay) Patch voltage clamp electrophysiology allows for the direct measurement and quantification of block of voltage-gated sodium channels (NaV's), and allows the determination of the time- and voltage-dependence of block which has been interpreted as differential binding to the resting, open, and inactivated states of the sodium channel (Hille, B., Journal of General Physiology (1977), 69: 497-515). […]
Where a name gives a salt, the structure may show the parent alone.
Exam item: assign 1.0 to entries whose IC50 is below 500 nM and 0.0 to entries at or above 500 nM. Note that a value of exactly 500 nM receives 0.0.

Example entries and their recorded answers appear below.
CN(C)[C@]1(CCc2cccc(C(F)(F)F)c2)CCCN(c2cc(F)c(S(=O)(=O)Nc3ccncn3)c(Cl)c2)C1 (single isomer, unassigned) ... 1.0
CN(C)[C@@]1(C[C@@H]2CCc3ccc(C(F)(F)F)cc32)CCCN(c2cc(F)c(S(=O)(=O)Nc3ccncn3)c(F)c2)C1 [Example 46, formate] ... 0.0
CN(C)[C@@]1(CCc2cccc(C(F)(F)F)c2Cl)CCCN(c2cc(F)c(S(=O)(=O)Nc3ccncn3)c(F)c2)C1 ... 0.0
CN(C)[C@]1(CCc2c(Cl)cccc2Cl)CCCN(c2cc(F)c(S(=O)(=O)Nc3ccncn3)c(F)c2)C1 (single isomer, unassigned) [Example 69, formate] ... 1.0
O=S(=O)(Nc1ccncn1)c1ccc(N2CCC[C@@](CCc3cccc(C(F)(F)F)c3)(N3CCCCC3)C2)cc1F (single isomer, unassigned) [Example 26, formate] ... 1.0
Cc1cc(N2CCC[C@](CCc3cccc(C(F)(F)F)c3)(N(C)C)C2)cc(C)c1S(=O)(=O)Nc1ccncn1 (single isomer, unassigned) [Example 62, formate] ... 1.0
CN(C)[C@@]1(CC2CCCC2)CCCN(c2cc(F)c(S(=O)(=O)Nc3ccncn3)c(F)c2)C1 ... 0.0
CN([C@@H]1CCOC1)[C@@]1(CCc2cccc(C(F)(F)F)c2)CCCN(c2cc(F)c(S(=O)(=O)Nc3ccncn3)c(F)c2)C1 (single isomer, unassigned) ... 0.0
CN1CC(CN(C)[C@@]2(CCc3cccc(C(F)(F)F)c3)CCCN(c3ccc(S(=O)(=O)Nc4ccncn4)c(F)c3)C2)C1 (single isomer, unassigned) ... 1.0

Let's switch to this compound now.
IC50 strictly < 500 nM for this compound? CN(C)[C@@]1(CCc2ccc(C(F)(F)F)cc2)CCCN(c2ccc(S(=O)(=O)Nc3ccncn3)c(F)c2)C1 (single isomer, unassigned)
1.0
